Please respond with reported growth for every item in the list.
Tested on: E. coli TESEC Alr+ wild-type control
Test: growth (OD600 after 10 h); higher = more growth (less inhibition)
Details: compound 0.1 mM; raw OD600 reference: median of DMSO wells 0.241, cell-free background 0.041
Structures can show the parent of a compound that is named as a salt.

## Task State its growth for this molecule: C[C@H](CCC(=O)O)[C@H]1CC[C@H]2[C@@H]3CC[C@@H]4C[C@H](O)CC[C@]4(C)[C@H]3CC[C@]12C
## Result 0.255

## Task State its growth for this molecule: CCN(CC)C(=O)N1CCN(C)CC1 [Diethylcarbamazine citrate]
## Result 0.255

## Task State its growth for this molecule: CN(C)CCC(c1ccc(Br)cc1)c1ccccn1 (centres undefined) [Brompheniramine maleate]
## Result 0.218

## Task State its growth for this molecule: CCCCc1oc2ccccc2c1C(=O)c1cc(I)c(OCCN(CC)CC)c(I)c1 [Amiodarone hydrochloride]
## Result 0.263

## Task State its growth for this molecule: CC(=O)c1ccc2c(c1)N(CCCN(C)C)c1ccccc1S2 [Acetopromazine maleate salt]
## Result 0.183

## Task State its growth for this molecule: CC(C)Cc1ccc([C@H](C)C(=O)O)cc1 [S-(+)-ibuprofen]
## Result 0.236

## Task State its growth for this molecule: NC(=O)c1cnccn1 [Pyrazinamide]
## Result 0.244

## Task State its growth for this molecule: COc1c2occc2c(OC)c2c(=O)cc(C)oc12
## Result 0.206

## Task State its growth for this molecule: CNCCC(Oc1ccc(C(F)(F)F)cc1)c1ccccc1 (centres undefined) [Fluoxetine hydrochloride]
## Result 0.129

## Task State its growth for this molecule: Cc1c(NC(=O)c2cccnc2)c(=O)n(-c2ccccc2)n1C
## Result 0.251

## Task State its growth for this molecule: NC(N)=Nc1nc(CSCC/C(N)=N/S(N)(=O)=O)cs1
## Result 0.248

## Task State its growth for this molecule: CN1C(C(=O)Nc2ccccn2)=C(O)c2ccccc2S1(=O)=O
## Result 0.195

## Task State its growth for this molecule: CC(=O)OCC(=O)[C@@]12N=C(C)O[C@@H]1C[C@H]1[C@@H]3CCC4=CC(=O)C=C[C@]4(C)[C@H]3[C@@H](O)C[C@@]12C
## Result 0.151

## Task State its growth for this molecule: O=C1c2ccccc2C(=O)C1c1ccccc1
## Result 0.243

## Task State its growth for this molecule: C#CCN(C)CCCOc1ccc(Cl)cc1Cl [Clorgyline hydrochloride]
## Result 0.14

## Task State its growth for this molecule: CC(CCc1ccc(O)cc1)NCCc1ccc(O)c(O)c1 (centres undefined) [Dobutamine hydrochloride]
## Result 0.116

## Task State its growth for this molecule: Cn1c(=O)c2c(ncn2CCO)n(C)c1=O
## Result 0.254

## Task State its growth for this molecule: Nc1nc(N)c2nc(-c3ccccc3)c(N)nc2n1
## Result 0.135

## Task State its growth for this molecule: Nc1ccc(/N=N/c2ccccc2)c(N)n1 [Phenazopyridine hydrochloride]
## Result 0.152

* * *

System: E. coli TESEC Alr+ wild-type control
Assay: growth (OD600 after 10 h); higher = more growth (less inhibition)
Settings: compound 0.1 mM; raw OD600 reference: median of DMSO wells 0.241, cell-free background 0.041
Counter-ions that a name gives are not always drawn.
Please respond with reported growth for every item in the list.
Give only the figure.

## Task State its growth for this compound: CC1=Nc2ccc(Cl)cc2S(=O)(=O)N1 [Diazoxide]
## Result 0.244

## Task State its growth for this compound: Cc1cc(NC(=O)C2=C(O)c3ccccc3S(=O)(=O)N2C)no1
## Result 0.25

## Task State its growth for this compound: CCOc1ccc(NC(C)=O)cc1
## Result 0.243

## Task State its growth for this compound: CCCC(=O)Nc1ccc(OCC(O)CNC(C)C)c(C(C)=O)c1 (stereo unspecified) [Acebutolol hydrochloride]
## Result 0.239

## Task State its growth for this compound: C[C@@H]1[C@H](O)[C@@H](C)/C=C/C=C/C=C/C=C/C=C/C=C/C=C/[C@H](O[C@@H]2O[C@H](C)[C@@H](O)[C@H](N)[C@@H]2O)C[C@@H]2O[C@](O)(C[C@@H](O)C[C@@H](O)[C@H](O)CC[C@@H](O)C[C@@H](O)CC(=O)O[C@H]1C)C[C@H](O)[C@H]2C(=O)O
## Result 0.316

## Task State its growth for this compound: OC(Cn1cncn1)(Cn1cncn1)c1ccc(F)cc1F
## Result 0.238

## Task State its growth for this compound: Clc1cccc(Cl)c1NC1=NCCN1 [Clonidine hydrochloride]
## Result 0.245

## Task State its growth for this compound: Cc1cnc(NC(=O)C2=C(O)c3ccccc3S(=O)(=O)N2C)s1
## Result 0.148

## Task State its growth for this compound: CN(Cc1cnc2nc(N)nc(N)c2n1)c1ccc(C(=O)N[C@@H](CCC(=O)O)C(=O)O)cc1 (racemic) [Amethopterin (R,S)]
## Result 0.213

## Task State its growth for this compound: COC(=O)Nc1nc2cc(C(=O)c3ccccc3)ccc2[nH]1
## Result 0.202

## Task State its growth for this compound: O=C(c1ccc(F)cc1)C1CCN(CCn2c(=O)[nH]c3ccccc3c2=O)CC1 [Ketanserin tartrate hydrate]
## Result 0.183

## Task State its growth for this compound: CC[C@H](C)C(=O)O[C@H]1C[C@H](O)C=C2C=C[C@H](C)[C@H](CC[C@@H](O)C[C@@H](O)CC(=O)O)[C@H]21
## Result 0.229

## Task State its growth for this compound: CCOc1nc2cccc(C(=O)O)c2n1Cc1ccc(-c2ccccc2-c2nnn[nH]2)cc1
## Result 0.238

## Task State its growth for this compound: O=C(Oc1cccc2cccnc12)c1ccccc1
## Result 0.222

## Task State its growth for this compound: CN1CCN(C(c2ccccc2)c2ccc(Cl)cc2)CC1 (stereo unspecified) [Chlorcyclizine hydrochloride]
## Result 0.179

## Task State its growth for this compound: CN1CCCC(CC2c3ccccc3Sc3ccccc32)C1 (stereo unspecified) [Metixene hydrochloride]
## Result 0.0422

* * *

System: E. coli TESEC Mtb Alr
Assay: growth (OD600 after 10 h); higher = more growth (less inhibition)
Details: arabinose 1000000 nM; compound 0.1 mM; raw OD600 reference: median of DMSO wells 0.193, cell-free background 0.041
Counter-ions that a name gives are not always drawn.
Please respond with reported growth for every item in the list.
Give only the figure.

## Task State its growth for this compound: Nc1ccn([C@H]2CC[C@@H](CO)O2)c(=O)n1
## Result 0.172

## Task State its growth for this compound: Cc1cccc(C)c1NC(=O)C(C)N (centres undefined) [Tocainide hydrochloride]
## Result 0.184

## Task State its growth for this compound: CC[C@]12CCCN3CCc4c(n(c5ccccc45)C(=O)C1)[C@@H]32 [Eburnamonine (-)]
## Result 0.124

## Task State its growth for this compound: CCCCC(CC)CN1CN(CC(CC)CCCC)CC(C)(N)C1 (centres undefined)
## Result 0.161

## Task State its growth for this compound: Nc1c(Br)cc(Br)cc1CN[C@H]1CC[C@H](O)CC1 [Ambroxol hydrochloride]
## Result 0.162

## Task State its growth for this compound: CCN(CC)C(=O)/C(C#N)=C/c1cc(O)c(O)c([N+](=O)[O-])c1
## Result 0.0544

## Task State its growth for this compound: CC(=O)[C@H]1CC[C@H]2[C@@H]3C[C@H](C)C4=CC(=O)CC[C@]4(C)[C@H]3[C@@H](O)C[C@]12C
## Result 0.112

## Task State its growth for this compound: Cc1c(O)c(=O)n(-c2ccccc2)n1C [Antipyrine, 4-hydroxy]
## Result 0.182

## Task State its growth for this compound: Cn1ccnc1S
## Result 0.191

* * *

Test system: E. coli TESEC Mtb Alr
Assay: growth (OD600 after 10 h); higher = more growth (less inhibition)
Details: arabinose 10000000 nM; compound 0.1 mM; raw OD600 reference: median of DMSO wells 0.146, cell-free background 0.041
Structures can show the parent of a compound that is named as a salt.
Please respond with reported growth for every item in the list.

## Task State its growth for this molecule: CS(=O)(=O)c1ccc([C@@H](O)[C@@H](CF)NC(=O)C(Cl)Cl)cc1
## Result 0.0409

## Task State its growth for this molecule: Cc1cn([C@H]2C[C@H](N=[N+]=[N-])[C@@H](CO)O2)c(=O)[nH]c1=O
## Result 0.103

## Task State its growth for this molecule: CCn1cc(C(=O)O)c(=O)c2cnc(N3CCNCC3)nc21
## Result 0.147

## Task State its growth for this molecule: C1CCC(C(CC2CCCCN2)C2CCCCC2)CC1 (centres undefined) [Perhexiline maleate]
## Result 0.0389

## Task State its growth for this molecule: Cc1ccccc1OCC(O)CO (centres undefined)
## Result 0.14

## Task State its growth for this molecule: CC(=O)Nc1ccc(CC(=O)O)cc1
## Result 0.136

## Task State its growth for this molecule: Cc1ccc(C(=O)c2cc(O)c(O)c([N+](=O)[O-])c2)cc1
## Result 0.0485

## Task State its growth for this molecule: O=C1c2cccc3c2[C@H](CCC3)CN1[C@@H]1CN2CCC1CC2 [Palonosetron hydrochloride]
## Result 0.151

## Task State its growth for this molecule: C[C@@](Cc1ccc(O)c(O)c1)(NN)C(=O)O
## Result 0.193
